Data credit: patent US20060234940A1

- systemTested: DP IV
- Sequence (chain, as listed by the source): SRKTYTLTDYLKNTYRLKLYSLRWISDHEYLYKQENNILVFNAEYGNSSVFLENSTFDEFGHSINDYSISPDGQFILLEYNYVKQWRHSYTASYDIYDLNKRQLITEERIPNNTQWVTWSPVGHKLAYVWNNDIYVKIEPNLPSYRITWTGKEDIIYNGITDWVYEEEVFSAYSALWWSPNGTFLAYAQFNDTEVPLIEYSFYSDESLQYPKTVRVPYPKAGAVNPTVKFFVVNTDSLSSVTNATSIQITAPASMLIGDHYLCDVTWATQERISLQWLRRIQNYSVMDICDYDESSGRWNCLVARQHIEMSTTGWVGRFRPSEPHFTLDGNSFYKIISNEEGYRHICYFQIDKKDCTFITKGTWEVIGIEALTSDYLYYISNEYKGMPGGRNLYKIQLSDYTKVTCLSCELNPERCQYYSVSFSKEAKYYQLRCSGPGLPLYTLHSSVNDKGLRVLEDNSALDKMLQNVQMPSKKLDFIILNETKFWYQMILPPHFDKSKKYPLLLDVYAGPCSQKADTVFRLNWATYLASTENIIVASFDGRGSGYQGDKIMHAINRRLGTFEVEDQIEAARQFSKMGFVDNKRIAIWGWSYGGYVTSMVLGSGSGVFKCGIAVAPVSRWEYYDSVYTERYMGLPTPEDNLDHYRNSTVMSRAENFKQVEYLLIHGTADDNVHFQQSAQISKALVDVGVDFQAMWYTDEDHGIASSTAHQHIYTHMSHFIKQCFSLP
- method: photometric assay, competition with the standard substrate GP-4-nitroanilide; source of DP IV not stated
propertyName: pKi
// pKi: -log10(molar conc.)

# input // Input: TFTSDY (also called glucagon5-10; T(5)-F-T-S-D-Y) [hexapeptide TFTSDY] . Output its pKi only.
# output 3.15
